# METHOD DESCRIPTION: In Vitro Microsome Stability Assay (mouse)
# Type: in vitro ADME
# CONDITION SUMMARY: mouse liver microsomes, 30 min w/ NADPH
Mark Criterion met only when Liver Microsome Stability-% Left after 30 min w/ NADPH (%) Mouse stays strictly below 3%. Values equal to the cut-off are Criterion not met.

>>> df
                                   compound                cat
0  CC(C)N1CCCN(S(=O)(=O)c2ccc(N(C)C)cc2)C[C@H](C)CN(S(=O)(=O)N2CCc3cc(Cl)ccc3C2)CCC1      Criterion met
1  C[C@H]1CN(S(=O)(=O)c2ccc(N(C)C)cc2)CCCN(CC(F)(F)F)CCCN(S(=O)(=O)N2CCc3cc(Cl)ccc3C2)C1  Criterion not met
2  CCC(C)CN1CCCN(S(=O)(=O)c2ccc(N(C)C)cc2)C[C@H](C)CN(S(=O)(=O)N2CCc3cc(Cl)ccc3C2)CCC1 (stereo partly shown)  Criterion not met
3  C[C@H]1CN(S(=O)(=O)c2ccc(N(C)C)cc2)CCCCN(S(=O)(=O)N2CCc3cc(Cl)ccc3C2)C1      Criterion met

Exercise: Regarding C[C@H]1CN(S(=O)(=O)c2ccc3oncc3c2)CCCN(CC2CCCCC2)CCCN(S(=O)(=O)N2CCc3cc(Cl)ccc3C2)C1 , kindly confirm whether its Liver Microsome Stability-% Left after 30 min w/ NADPH (%) Mouse is beneath 3%.
Key: Criterion met

Exercise: Regarding COc1cc(F)ccc1N1CCN(S(=O)(=O)N2CCCN(CC3CCCCC3)CCCN(S(=O)(=O)c3ccc(N(C)C)cc3)CC3(CC3)C2)CC1 , kindly confirm whether its Liver Microsome Stability-% Left after 30 min w/ NADPH (%) Mouse is beneath 3%.
Key: Criterion not met

Exercise: Regarding CN(C)c1ccc(S(=O)(=O)N2CCCN(CC3CCCCC3)CCCN(S(=O)(=O)N3CCC(c4ccccc4)CC3)CC(=O)C2)cc1 , kindly confirm whether its Liver Microsome Stability-% Left after 30 min w/ NADPH (%) Mouse is beneath 3%.
Key: Criterion not met

====

# METHOD DESCRIPTION: In Vitro Microsome Stability Assay (mouse)
# Format: in vitro ADME
# CONDITION SUMMARY: mouse liver microsomes, 30 min w/ NADPH
METRIC: Liver Microsome Stability-% Left after 30 min w/ NADPH (%) Mouse
Answers are plain numbers, in %.

Field: example entries. Status: answers known.
                                   compound  readout_unit  value_measured
0  C[C@H]1CCN(S(=O)(=O)c2ccc(N(C)C)cc2)CCCN(CC2CCCCC2)CCCN1S(=O)(=O)N1CCc2cc(Cl)ccc2C1             %            0.74
1  C[C@H]1CN(S(=O)(=O)Cc2ccccc2)CCCN(CC2CCCCC2)CCCN(S(=O)(=O)N2CCc3cc(Cl)ccc3C2)C1             %            0.91
2  C=C1CN(S(=O)(=O)c2ccc(N(C)C)cc2)C(C)CCN(CC2CCCCC2)CCCN(S(=O)(=O)N2CCC(c3ccccc3)CC2)C1 (stereo not shown)             %            13.5
3  C[C@H]1CN(S(=O)(=O)c2ccc(N(C)C)cc2)CCCN(CC2CCC(F)CC2)CCCN(S(=O)(=O)N2CCc3cc(Cl)ccc3C2)C1 (stereo partly shown)             %            62.6
4  CCc1ccc2c(c1)CCN(S(=O)(=O)N1CCCN(CC3CCCCC3)CCCN(S(=O)(=O)c3ccc(N(C)C)cc3)C[C@H](C)C1)C2             %            14.3

For each listed entry, give its Liver Microsome Stability-% Left after 30 min w/ NADPH (%) Mouse.
1. Cc1ccccc1CN1CCCN(S(=O)(=O)c2ccc(N(C)C)cc2)C[C@H](C)CN(S(=O)(=O)N2CCc3cc(Cl)ccc3C2)CCC1
2. C[C@H]1CN(S(=O)(=O)c2ccc(N(C)C)cc2)CCCN(CC2=CCCCC2)CCCN(S(=O)(=O)N2CCc3cc(Cl)ccc3C2)C1

Key:
[82.2, 26.1]
